Test system: Toxoplasma gondii
Assay: Antiparasitic activity against Toxoplasma gondii infected in HFF after 24 hrs by [3H]uracil incorporation assay
Format: functional
// map MIC50 to label using low bin = under 5 µM, mid bin = from 5 µM up to 10 µM, high bin = 10 µM and over

molecule=C/C=C/C=C/C(=O)Nc1ccc(Oc2ccc(Cl)cc2O)cc1 assigned_class="mid bin"
molecule=O=[N+]([O-])c1ccc(Oc2ccc(Cl)cc2O)cc1 assigned_class="high bin"
molecule=CCCc1ccc(Oc2ccc([N+](=O)[O-])cc2)c(O)c1 assigned_class="mid bin"
molecule=CC(C)(C)C(=O)Oc1cc(Cl)ccc1Oc1ccc(Cl)cc1Cl assigned_class="low bin"
molecule=CC(=O)Nc1ccc(Oc2ccc(Cl)cc2O)cn1 assigned_class="high bin"
molecule=CCCc1cc(O)c(Oc2ccc(C(=O)O)cc2Cl)c(O)c1 assigned_class="high bin"
molecule=CCCc1ccc(Oc2ccc([N+](=O)[O-])cc2[N+](=O)[O-])c(O)c1 assigned_class="low bin"
molecule=N#Cc1ccc(Cn2ccc(OCc3ccccc3)cc2=O)c(Cl)c1 assigned_class="high bin"
molecule=CCCc1ccc(Oc2ccc(N)cc2)c(O)c1 assigned_class="mid bin"
molecule=O=c1cc(OCc2ccccc2)ccn1Cc1ccccc1Cl assigned_class="mid bin"
molecule=O=[N+]([O-])c1ccc(Oc2ccc(Cl)cc2O)c(Cl)c1 assigned_class="low bin"
molecule=CCCc1cc(O)c(Oc2ccc(-c3nn[nH]n3)cc2)c(O)c1 assigned_class="high bin"
molecule=Oc1cc(Cl)ccc1Oc1ccc(-c2ccccc2)cc1 assigned_class="mid bin"
molecule=O=c1[nH]c2ccccc2n1S(=O)(=O)c1ccc([N+](=O)[O-])cc1 assigned_class="high bin"
molecule=C/C=C/C=C/C(=O)Nc1ccc(Oc2ccc(Cl)cc2Cl)c(O)c1 assigned_class="high bin"
molecule=O=c1cc(OCCCn2c3ccccc3c3ccccc32)ccn1Cc1ccccc1Cl assigned_class="low bin"
molecule=Nc1ccccc1CNC(=O)COc1ccc([N+](=O)[O-])cc1 assigned_class="high bin"
molecule=COc1ccc(COc2ccn(Cc3ccccc3Cl)c(=O)c2)cc1 assigned_class="high bin"
molecule=O=[N+]([O-])c1ccccc1Oc1ccc(Cl)cc1O assigned_class="high bin"
molecule=CCCc1cc(O)c(Oc2ccc(C(N)=O)cc2)c(O)c1 assigned_class="high bin"
molecule=O=c1cc(OCc2ccccc2)ccn1Cc1ccc([N+](=O)[O-])cc1Cl assigned_class="low bin"
molecule=CC(=O)Nc1ccccc1Oc1ccc(Cl)cc1O assigned_class="high bin"
molecule="CCOC(=O)C(C)OC(=O)c1cc(Oc2ccc(C(F)(F)F)cc2Cl)ccc1[N+](=O)[O-] (configuration not stated)" assigned_class="high bin"
molecule=CCCc1ccc(Oc2ccc(C#N)cc2Cl)c(O)c1 assigned_class="low bin"
molecule=CCCc1cc(O)c(Oc2ccc(C#N)cc2Cl)c(O)c1 assigned_class="high bin"
molecule=O=c1[nH]c2ccccc2n1-c1ccc([N+](=O)[O-])c(Cl)c1 assigned_class="high bin"

* * *

Tested on: HFF
Assay: Toxicity to HFF
Format: cell-based
Conditions: human
experimental endpoint: Activity

compound=CC(C)(C)C(=O)Nc1cc(Cl)ccc1Oc1ccccc1 experimental_value="> 6 µM"
compound=CCCc1ccc(Oc2ccc(C#N)cc2Cl)c(O)c1 experimental_value="5 µM"
compound=CCCc1ccc(Oc2cccc(CCO)c2)c(O)c1 experimental_value="> 6 µM"
compound=Oc1cc(Cl)ccc1Oc1ccccc1 experimental_value="> 6 µM"
compound=CCCc1ccc(Oc2ccc(N)cc2)c(O)c1 experimental_value="3 µM"
compound=Nc1ccc(/C=C/C(=O)NCc2ccccc2N)cn1 experimental_value="> 6 µM"
compound=CCCc1ccc(Oc2cccc(B(O)O)c2)c(O)c1 experimental_value="> 6 µM"
compound=Oc1cc(Cl)ccc1Oc1cnccn1 experimental_value="> 6 µM"
compound=Oc1cc(Cl)ccc1Oc1cccnc1 experimental_value="> 6 µM"
compound=Oc1ccc(Oc2ccccc2)c(O)c1 experimental_value="6 µM"
compound=C/C=C/C=C/C(=O)Nc1ccc(Oc2ccc(Cl)cc2O)cc1 experimental_value="6 µM"
compound=CCCc1cc(O)c(Oc2ccc(C#N)cc2)c(O)c1 experimental_value="3 µM"
compound=CCCc1ccc(Oc2cccc([N+](=O)[O-])c2)c(O)c1 experimental_value="6 µM"
compound=CC(C)(C)C(=O)Oc1cc(Cl)ccc1Oc1ccc(Cl)cc1Cl experimental_value="> 6 µM"
compound=CCCc1ccc(Oc2ccc([N+](=O)[O-])cc2)c(O)c1 experimental_value="> 6 µM"
compound=Nc1ccc(Nc2ccccc2)c(N)c1 experimental_value="< 1.5 µM"
compound=Oc1ccc(Oc2ccc(O)cc2O)cc1 experimental_value="6 µM"
compound=O=[N+]([O-])c1ccc(Oc2ccc(Cl)cc2O)c(Cl)c1 experimental_value="4 µM"
compound=CCCc1ccc(Oc2cccc(Cl)c2)c(O)c1 experimental_value="> 6 µM"
compound=CCCc1ccc(Oc2ccc([N+](=O)[O-])cc2Cl)c(O)c1 experimental_value="1.5 µM"
compound=CCCc1cc(O)c(Oc2ccc(C#N)cc2Cl)c(OC)c1 experimental_value="> 6 µM"
compound=CCCc1ccc(Oc2ccc([N+](=O)[O-])cc2[N+](=O)[O-])c(O)c1 experimental_value="< 1.5 µM"
compound="Oc1cc(Cl)ccc1Oc1ccc(Cl)cc1Cl [TRICLOSAN]" experimental_value="> 6 µM"
compound=CN(Cc1cc2ccccc2n1C)C(=O)/C=C/c1ccc(N)nc1 experimental_value="> 6 µM"
compound=CC(=O)Nc1ccc(/C=C/C(=O)N(C)Cc2cc3ccccc3n2C)cn1 experimental_value="> 6 µM"
compound=COc1ccc(NC(=O)/C=C/c2ccc(N)nc2)cc1 experimental_value="> 6 µM"
compound=Oc1ccc(Oc2ccc(Cl)cc2O)cc1 experimental_value="> 6 µM"

* * *

Measured remaining at 1 h of individual entries
Experiment: Metabolic stability in human liver microsome assessed as compound remaining after 60 mins
Assay type: ADME
Conditions: liver microsomes, read-out: INH
experimental endpoint: remaining at 1 h

chemical_structure=O=[N+]([O-])c1ccc(Oc2ccc(Cl)cc2O)c(Cl)c1 experimental_endpoint="remaining at 1 h" experimental_value=51.2%
chemical_structure=CCCc1ccc(Oc2ccc(C#N)cc2Cl)c(O)c1 experimental_endpoint="remaining at 1 h" experimental_value=45.1%

* * *

Test system: HFF
Assay: Toxicity to HFF at highest concentration
Assay type: cell-based
Details: human
experimental endpoint: Activity

compound=CCCc1cc(O)c(Oc2ccc(C(N)=O)cc2)c(O)c1 experimental_value=Non-toxic
compound=CCCc1cc(O)c(Oc2ccc(C#N)cc2Cl)c(OC)c1 experimental_value=Non-toxic
compound=CCCc1ccc(Oc2cccc(CCO)c2)c(O)c1 experimental_value=Non-toxic
compound=CCCc1cc(O)c(Oc2ccc(C#N)cc2)c(O)c1 experimental_value=Non-toxic
compound=COc1ccc(NC(=O)/C=C/c2ccc(N)nc2)cc1 experimental_value=Non-toxic
compound=Oc1ccc(Oc2ccc(Cl)cc2O)cc1 experimental_value=Non-toxic
compound=CCCc1ccc(Oc2ccc(C#N)cc2Cl)c(O)c1 experimental_value=Non-toxic
compound="CCOC(=O)C(C)OC(=O)c1cc(Oc2ccc(C(F)(F)F)cc2Cl)ccc1[N+](=O)[O-] (stereo not given)" experimental_value=Non-toxic
compound=Nc1ccc(/C=C/C(=O)NCc2ccccc2N)cn1 experimental_value=Non-toxic
compound=Nc1ncccc1C(=O)Nc1cc(Cl)ccc1Oc1ccccc1 experimental_value=Non-toxic

* * *

Target: CYP3A4 (Homo sapiens)
Sequence (P08684 whole entry): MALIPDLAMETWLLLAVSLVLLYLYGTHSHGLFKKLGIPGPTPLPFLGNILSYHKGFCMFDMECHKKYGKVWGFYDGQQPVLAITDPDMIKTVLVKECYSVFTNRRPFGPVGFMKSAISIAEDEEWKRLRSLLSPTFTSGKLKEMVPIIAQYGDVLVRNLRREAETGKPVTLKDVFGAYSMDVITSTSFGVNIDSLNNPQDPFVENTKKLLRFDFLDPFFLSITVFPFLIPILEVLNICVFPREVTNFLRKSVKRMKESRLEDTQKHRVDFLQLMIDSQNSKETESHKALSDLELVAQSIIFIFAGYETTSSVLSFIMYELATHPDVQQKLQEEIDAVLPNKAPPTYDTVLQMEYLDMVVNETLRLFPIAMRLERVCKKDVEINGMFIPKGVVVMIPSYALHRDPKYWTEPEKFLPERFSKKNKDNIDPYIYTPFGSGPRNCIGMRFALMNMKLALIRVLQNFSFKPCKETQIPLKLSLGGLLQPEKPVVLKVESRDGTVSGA
Test: Inhibition of CYP3A4 at 10 uM
Format: ADME
Measured inhibition at 10 µM of individual entries
experimental endpoint: inhibition at 10 µM

chemical_structure=CCCc1ccc(Oc2ccc(C#N)cc2Cl)c(O)c1 experimental_value="< 22%"
chemical_structure=O=[N+]([O-])c1ccc(Oc2ccc(Cl)cc2O)c(Cl)c1 experimental_value="< 22%"

* * *

Tested on: HFF
Assay: Toxicity to HFF at highest concentration
Format: cell-based
Settings: human
experimental endpoint: Activity

chemical_structure=CCCc1ccc(Oc2ccc(N)cc2)c(O)c1 experimental_value=Non-toxic
chemical_structure=Nc1cc(Cl)ccc1Oc1ccccc1 experimental_value=Non-toxic
chemical_structure=CCCc1ccc(Oc2ccc([N+](=O)[O-])cc2Cl)c(O)c1 experimental_value=Non-toxic
chemical_structure=N#Cc1ccc(Cn2ccc(OCc3ccccc3)cc2=O)c(Cl)c1 experimental_value=Non-toxic
chemical_structure=CCCc1ccc(Oc2cccc(B(O)O)c2)c(O)c1 experimental_value=Non-toxic
chemical_structure=CCCc1ccc(Oc2ccc([N+](=O)[O-])cc2[N+](=O)[O-])c(O)c1 experimental_value=Non-toxic
chemical_structure=Oc1cc(Cl)ccc1Oc1cccnc1 experimental_value=Non-toxic
chemical_structure=O=c1cc(OCc2ccccc2)ccn1Cc1ccccc1Cl experimental_value=Non-toxic
chemical_structure=CCCc1cc(O)c(Oc2ccc(C#N)cc2Cl)c(O)c1 experimental_value=Non-toxic
chemical_structure=O=[N+]([O-])c1ccc(Oc2ccc(Cl)cc2O)cc1 experimental_value=Non-toxic
chemical_structure=CC(C)(C)C(=O)Nc1cc(Cl)ccc1Oc1ccccc1 experimental_value=Non-toxic
chemical_structure=O=[N+]([O-])c1ccccc1Oc1ccc(Cl)cc1O experimental_value=Non-toxic
chemical_structure=Oc1ccc(Oc2ccccc2)c(O)c1 experimental_value=Non-toxic

Where do the numbers come from? From ChEMBL document CHEMBL1240506.
